tested on: SK-MEL-28; assay: NCI tumour cell line growth inhibition, 48 h
Where a name gives a salt, the structure may show the parent alone. The source made the active and inactive calls. No stated cut-off is given here; in the data, active = GI50 up to about 1.1 µM and inactive = higher.
reported-property: GI50

CC(C)C(Br)CC/C(CBr)=C(\Cl)CCl (stereo not given)    2.83 µM (inactive)
CCN(CC)CCNc1nc2ccc([N+](=O)[O-])cc2[n+]([O-])n1    71.6 µM (inactive)
O=C1Nc2ccccc2/C1=C\c1c(Cl)n(-c2ccccc2)c2ccccc12    12 µM (inactive)
O=C(O)/C=N\N=c1[nH]c2ccccc2[nH]1    > 100 µM (inactive)
Cc1cc2c(cc1C)[n+]([O-])c(C(=O)C/C(=N/OCCCc1ccccc1)C(=O)Nc1cc(Cl)ccc1Cl)c(C)[n+]2[O-]    > 100 µM (inactive)
CCOC(=O)c1cc2cc(CSc3ccccc3)ccc2oc1=O    > 100 µM (inactive)
NC(=O)NCc1c(C(N)=O)ncn1Cc1ccccc1    > 100 µM (inactive)
COC(=O)CC1CC2(C(=O)OC)c3[nH]c4ccccc4c3CCN2C1=O (stereo not given)    > 100 µM (inactive)
COC(=O)c1cccc2c3ccccc3c3ccccc3c12    41.5 µM (inactive)
CCCCc1oc2ccccc2c1C(=O)c1cc(I)c(OCCN(CC)CC)c(I)c1 [AMIODARONE HYDROCHLORIDE]    4.8 µM (inactive)

###

system: UACC-257; experiment: NCI tumour cell line growth inhibition, 48 h
Activity calls are given as the source filed them. Rule as the data show it: active = GI50 up to about 1.1 µM and inactive = higher.
reported-property: GI50

C/C=C/COC(=O)CO[N+](=O)[O-]    > 100 µM (inactive)
CN(/N=C/c1ccc(Cl)cc1)C1=NCCCCN1    > 100 µM (inactive)
CCOC(=O)C1=C(C)NC(c2ccccc2)=C(C(=O)OCc2ccccc2)C1C#Cc1ccccc1 (stereo not given)    > 100 µM (inactive)
COc1ccc(C2=Nn3c(nnc3-c3ccccc3)S/C2=C\c2ccc(-c3ccc([N+](=O)[O-])cc3)o2)cc1    44.7 µM (inactive)
O=C(NCCO)Nc1c(C(F)(F)F)cc(-c2ccccc2)[nH]c1=O    > 100 µM (inactive)

###

test system: HOP-62; assay: NCI tumour cell line growth inhibition, 48 h
Active and inactive are the calls of the source. No stated cut-off is given here; in the data, active = GI50 up to about 1.1 µM and inactive = higher.
Labels: active, inactive

CCOC(=O)C(=O)Nc1c(CC)cccc1C(C)CC (configuration not stated)    inactive
CC(=O)Nc1ccc(-c2nc3ccccc3s2)cc1Br    inactive
CC(=O)Oc1cc(-c2oc3cc(OC(C)=O)c(C4OC(CO)C(O)C(O)C4O)c(OC(C)=O)c3c(=O)c2O)c(OC(C)=O)cc1O (configuration not stated)    inactive
O=C1CC2CC3OC3[C@H]3c4cc5c(cc4C(=O)N1C23)OCO5 (some centres not stated)    inactive
CC(=O)c1ccccc1NCC(=O)Nn1cnc2ccc(S(=O)(=O)Nc3ccccc3C(C)=O)cc2c1=O    inactive
CC(=O)/C(=C/n1ccc(=O)[nH]c1=S)C(=O)Nc1ccccc1C    inactive
COC(=O)C1(NC(=O)C(N)CC(=O)O)C(C)C1C (configuration not stated)    inactive
Cc1ccc(Nc2nc(=O)c3c4ccccc4n(C(=O)OC(C)(C)C)c3s2)cc1    inactive
CC(=O)O[C@H]1C(=O)[C@@]2(C)[C@H]([C@H](OC(=O)c3ccccc3)[C@]3(O)C[C@H](OC(=O)[C@H](O)[C@@H](NC(=O)c4ccc(N(C)C)cc4)c4ccccc4)C(C)=C1C3(C)C)[C@]1(OC(C)=O)CO[C@@H]1C[C@@H]2O    active
O=[N+]([O-])c1nccn1CCCNc1c2ccccc2[n+]([O-])c2ccccc12    inactive
O=[N+]([O-])c1ccc(S[C@@H]2[C@H]3c4c(-c5ccccc5)[nH]c(-c5ccccc5)c4[C@@H]2C[C@H]3Cl)cc1    inactive
Nc1nc(O)c2nc(N)n(Cc3ccccc3)c2n1    inactive

###

tested on: SNB-19; experiment: NCI tumour cell line growth inhibition, 48 h
The source made the active and inactive calls. No stated cut-off is given here; in the data, active = GI50 up to about 1.1 µM and inactive = higher.
reported-property: GI50

CCOC(=O)Cc1c(Cc2[nH]c(C(=O)OCc3ccccc3)c(CC(=O)OCC)c2CC(=O)OCC)[nH]c(C(=O)OCc2ccccc2)c1CC(=O)OCC    > 100 µM (inactive)
COC(=O)/C=C1/OC(c2ccccc2)=C(Cl)C1=O    31.3 µM (inactive)
O=C(Nc1ccccc1F)c1cc2ccc(O)cc2o/c1=N\c1cccc(F)c1    15.9 µM (inactive)
O=c1[nH]c(=O)n(C2CC(O)C(CO)O2)cc1/N=N/NCCc1ccccc1 (stereo not given)    > 100 µM (inactive)
COC12c3ccccc3-c3ccccc3C1[C@H]1C(=O)OC(=O)[C@H]12 (stereo not given in full)    > 10 µM (inactive)
COC(=O)/C=C\S/C(=C(/c1ccccc1)n1ccc(C(=O)OC)n1)c1ccccc1    12.7 µM (inactive)
CC(=O)NNC(=S)N/C=C1/C(=O)C=C(C)OC1=O    > 100 µM (inactive)
N=C1N(c2ccccc2)C(=O)C23CCCC2C13N1CCOCC1 (stereo not given)    > 100 µM (inactive)
CC1(C)C2CCC3=C(CCC4(C)C5C[C@](C)(C(=O)O)CC[C@]5(C)CC[C@]34C)[C@@]2(C)CC[C@@H]1O (stereo not given in full)    > 10 µM (inactive)
O=C(O)/C=N\N=c1[nH]c2ccccc2[nH]1    > 100 µM (inactive)

###

tested on: CCRF-CEM; test: NCI tumour cell line growth inhibition, 48 h
Calls of active or inactive are those of the source. Rule as the data show it: active = GI50 up to about 1.1 µM and inactive = higher.
Labels: 1 for active, -1 for inactive

Cc1nc2c(C)c3c([nH]c4ccc(Cl)cc43)c(C)c2c(O)c1C    -1
O=c1c2cc(-c3ccccc3)cnc2sn1-c1ccc(Br)cc1    -1
COc1ccccc1/C=C/c1ccnc2ccccc12    -1
O=C(NCCO)Nc1c(C(F)(F)F)cc(-c2ccccc2)[nH]c1=O    -1
N=C(CCl)NC1CN2CCC1CC2 (stereo not drawn)    -1
COc1ccc(N2C(=O)C3c4[nH]c5ccc(C)cc5c4C4CCC(C(C)(C)C)CC4C3C2=O)cc1 (stereo not drawn)    -1
CCOC(=O)C1=C(C)NC(=S)NC1c1cccc(O)c1 (stereo not drawn)    -1
COc1ccc(NCc2cc(OC)cc(OC)c2)cc1    -1
CC(=O)OC1CC2CC(=O)CC1N2C (stereo not drawn)    -1
COC(=O)c1ccccc1C1CN=NC12Cc1cc3c(cc1C2=O)CCC3 (stereo not drawn)    -1
Clc1c(Cl)c(Cl)c2c(nnn2C2CCCO2)c1Cl (stereo not drawn)    -1
Nc1nc(Nc2ccccc2)sc1C(=O)c1ccco1    -1
N=C1N(c2ccccc2)C(=O)C23CCCC2C13N1CCOCC1 (stereo not drawn)    -1
Clc1ccc(C2N3CCCCC3[C@@H]3c4[nH]c5ccccc5c4CCN23)cc1 (stereo partly drawn)    -1
CCOC(=O)C1C(=O)C(C(=O)OCC)C(c2ccccc2)N(C)C1c1ccccc1 (stereo not drawn)    -1
Oc1cc(-c2ccccc2Cl)nc2cc3c(cc12)OCO3    1
Cc1cccc(NC(=O)C(=O)C(C2OC(=O)c3ccccc32)[N+](=O)[O-])c1C (stereo not drawn)    -1
Clc1ccc(-c2nnc3sc4nc5ccccc5c-4nn23)c(Cl)c1    -1
Cc1sccc1C(=S)Nc1ccc(Cl)c(/C=N/OC(C)(C)C)c1    -1
COc1ccc(/C=N\NC(=O)Nc2cccc3ccccc23)cc1    -1
O=C1/C(=C/c2ccc(O)cc2)CCC1CNc1ccc(Cl)cc1 (stereo not drawn)    1
O=[N+]([O-])c1nccn1CCCNc1c2ccccc2[n+]([O-])c2ccccc12    -1
COc1c(-c2ccccc2)nc2ccc(Oc3ccccc3)nn12    -1

###

test system: HOP-92; assay: NCI tumour cell line growth inhibition, 48 h
The source made the active and inactive calls. No stated cut-off is given here; in the data, active = GI50 up to about 1.1 µM and inactive = higher.
Labels: active, inactive

Cc1cc(Br)ccc1/N=N/c1c(C)nn(-c2ccccc2)c1-c1ccccc1    inactive
O=C(/C=C1\Nc2ncccc2N=C1CC(=O)c1ccccc1)c1ccccc1    inactive
O=C(/C=C/c1cccs1)c1ccccc1Cl    inactive
O=C1C=Cc2c(-c3ccccc3)oc3cccc1c23    inactive
N=C(CCl)NC1CN2CCC1CC2 (stereo unspecified)    inactive
O=S1(=O)C[C@H](NCc2ccccc2)[C@H](NCc2ccccc2)C1    inactive
[N-]=[N+]=NC1(Cc2ccccc2)C(=O)c2cccc3c2N(CCC3)C1=O (stereo unspecified)    inactive
COC1C(O)=C2C(=O)OC(C)(O)/C=C/C=C\C=C/C=C/C(c3ccccc3)NC(=O)/C=C/C=C/C=C/C=C/C2(C)C1O (stereo unspecified)    active
CCn1c2ccccc2c2ccc3c(c21)C(=O)c1ccccc1C3=O    inactive
c1ccc2c(c1)[nH]c1c3ccccc3sc21    inactive
COc1cc(/C=C/c2cccnc2)cc(OC)c1OC    inactive
Nc1nc(O)c2nc(N)n(Cc3ccccc3)c2n1    inactive
Cn1cccc1/C=C/c1cc(Br)c(/C=C/c2cccn2C)cc1Br    inactive
S=C(Nc1ccc2c(c1)oc1ccccc12)c1cccnc1    inactive
COC1C=CC(C(=O)[N+]2=Cc3[nH]c4ccccc4c3CC2)O1 (stereo unspecified)    inactive
S=C1NCCN1    inactive
COc1cccc(C[C@H]2COC(=O)[C@]2(O)Cc2cccc(OC)c2)c1    inactive
O=C(O)CN1CCN2CCCCCN(CC1)CCN(CC(=O)O)CC2    inactive
O=S(=O)(O)c1ccccc1/N=N\c1ccc(/N=N/c2c(O)ccc3ccccc23)c(S(=O)(=O)O)c1    inactive
Cc1c(-c2ccccn2)ccc2ccccc12    inactive
CN(Cc1nc2c(N)nc(N)nc2nc1N)c1ccc(C(=O)NC(CCC(=O)O)C(=O)O)cc1 (stereo unspecified)    inactive
COC(=O)c1ccccc1C1CN=NC12Cc1cc3c(cc1C2=O)CCC3 (stereo unspecified)    inactive
CC(=O)OC1CC2CC(=O)CC1N2C (stereo unspecified)    inactive
COc1ccc(S(=O)(=O)Nc2ccccc2C(=O)O)cc1    inactive
O=C1OC(Cl)C(N=P(c2ccccc2)(c2ccccc2)c2ccccc2)=C1Cl (stereo unspecified)    inactive
N=C(N)NCCCC(NC(=O)c1c2ccccc2nc2ccccc12)C(=O)O (stereo unspecified)    inactive
O=c1c2ccccc2c(=O)n2n1CC=CC2    inactive
CC(C)=CCC[C@@H](C)C1=C(O)C(=O)C(C)=C(N)C1=O    inactive
CC(NC(=O)c1ccccc1)C(=O)N(Cc1ccccc1)Cc1ccccc1 (stereo unspecified)    inactive
CC(=O)OCCOCn1c2ccccc2c2c3c(c4c5ccccc5n(COCCOC(C)=O)c4c21)C(=O)N(Cc1ccccc1)C3=O    inactive
O=[N+]([O-])c1ccc2occ3c2c1CCC3    inactive
O=C(CC1C=CCS1(=O)=O)NCc1ccccc1 (stereo unspecified)    inactive
CCn1c(=O)c2c3ccc(OC)cc3[nH]c2c2ccc(OC)cc21    inactive
CC(=O)Nc1ccc(-c2nc3ccccc3s2)cc1Br    inactive
COc1ccc2cc(CNCCOCCOCCNCc3ccc4cc(OC)ccc4c3)ccc2c1    active
O=[N+]([O-])c1ccc(S[C@@H]2[C@H]3c4c(-c5ccccc5)[nH]c(-c5ccccc5)c4[C@@H]2C[C@H]3Cl)cc1    active
CN(C)CCNc1nc(-c2cccs2)cc(-c2cccs2)n1    inactive
COCC1OCCN1C (stereo unspecified)    inactive
COC1CCC2C(=O)CCCC2O1 (stereo unspecified)    inactive
CN(/N=C/c1ccc(Cl)cc1)C1=NCCCCN1    inactive
Nc1nnc(O)c2c1c(I)cn2C1OC(CO)C(O)C1O (stereo unspecified)    active
O=C(O)C[C@H]1CCCCC12CCOC2=O (stereo partly specified)    inactive
Nc1[nH]c(=O)[nH]c(=O)c1Cc1cccc(Cl)c1    inactive
CCCCCc1cc2cc3c(c(O)c2c(=O)[nH]1)C1(CCC3)C(=O)c2c(O)c3c(c(O)c2C1=O)C(=O)C(OC)=CC3=O (stereo unspecified)    active
CCOP(=O)(OCC)C(C)(CC)NC (stereo unspecified)    inactive
Nc1nc2c3nc(Nc4ccccc4)sc3nc(=O)n2c2sc(Nc3ccccc3)nc12    inactive

Reference for the values: ChEMBL document CHEMBL1201862
